# Experiment: single oral dose pharmacokinetic study in healthy and NASH subjects
# Type: in vivo, human
# Measurement Context: human, plasma, po, 200 mg, 200 mg single oral dose, Healthy; read-out: Tmax, Geometric Mean
Readout Name: Tmax
State the value with its unit after it.

Q: Find the recorded Tmax belonging to C[C@H](CCCC(C)(C)O)[C@H]1CC[C@H]2[C@@H]3CC=C4C[C@@H](OS(=O)(=O)[O-])CC[C@]4(C)[C@H]3CC[C@]12C.[Na+] [25HC3S sodium, 25-hydroxycholesterol-3-sulfate sodium] and report it.
A: 2.53 h

----------
# Experiment: single oral dose pharmacokinetic study in healthy and NASH subjects
# Assay type: in vivo, human
# Measurement Context: human, plasma, po, 50 mg, 50 mg single oral dose, Healthy; read-out: Vz/F, Mean
Readout Name: Vd/F (L)
Entry rule: numbers only, all in L.

Q: Find the recorded Vd/F belonging to C[C@H](CCCC(C)(C)O)[C@H]1CC[C@H]2[C@@H]3CC=C4C[C@@H](OS(=O)(=O)[O-])CC[C@]4(C)[C@H]3CC[C@]12C.[Na+] [25HC3S sodium, 25-hydroxycholesterol-3-sulfate sodium] and report it.
A: 325

----------
# Experiment: single oral dose pharmacokinetic study in healthy and NASH subjects
# Format: in vivo, human
# Measurement Context: human, plasma, po, 50 mg, 50 mg single oral dose, Healthy; read-out: T1/2, Mean (converted)
Readout Name: half-life

Q: Find the recorded half-life belonging to C[C@H](CCCC(C)(C)O)[C@H]1CC[C@H]2[C@@H]3CC=C4C[C@@H](OS(=O)(=O)[O-])CC[C@]4(C)[C@H]3CC[C@]12C.[Na+] [25HC3S sodium, 25-hydroxycholesterol-3-sulfate sodium] and report it.
A: 1.91 h

----------
# Experiment: single oral dose pharmacokinetic study in healthy and NASH subjects
# Type: in vivo, human
# Measurement Context: human, plasma, po, 200 mg, 200 mg single oral dose, Healthy; read-out: Cmax, Mean
# Method: The present Example was a randomized, dose ranging, single dose safety and pharmacokinetic study of 25HC3S administered to subjects with NASH and control healthy subjects. […] For each cohort, 10 subjects with NASH were enrolled which were further classified into cirrhotic and non-cirrhotic. Each subject received only one dose of study treatment. The second cohort was dosed after a review of safety and tolerability data from Cohort 1.
Readout Name: Cmax (ng/mL)
Entry rule: numbers only, all in ng/mL.

1. C[C@H](CCCC(C)(C)O)[C@H]1CC[C@H]2[C@@H]3CC=C4C[C@@H](OS(=O)(=O)[O-])CC[C@]4(C)[C@H]3CC[C@]12C.[Na+] [25HC3S sodium, 25-hydroxycholesterol-3-sulfate sodium] = 260

# ---- query molecule ----
Q: Find the recorded Cmax belonging to C[C@H](CCCC(C)(C)O)[C@H]1CC[C@H]2[C@@H]3CC=C4C[C@@H](OS(=O)(=O)O)CC[C@]4(C)[C@H]3CC[C@]12C [25HC3S, 25-hydroxycholesterol-3-sulfate] and report it.
A: 260

----------
# Experiment: single oral dose pharmacokinetic study in healthy and NASH subjects
# Assay type: in vivo, human
# Measurement Context: human, plasma, po, 200 mg, 200 mg single oral dose, Healthy; read-out: AUC0-last, Geometric Mean
Readout Name: AUC(0-t) (ng·h/mL)
Entry rule: numbers only, all in ng·h/mL.

Q: Find the recorded AUC(0-t) belonging to C[C@H](CCCC(C)(C)O)[C@H]1CC[C@H]2[C@@H]3CC=C4C[C@@H](OS(=O)(=O)[O-])CC[C@]4(C)[C@H]3CC[C@]12C.[Na+] [25HC3S sodium, 25-hydroxycholesterol-3-sulfate sodium] and report it.
A: 1170

----------
# Experiment: single oral dose pharmacokinetic study in healthy and NASH subjects
# Type: in vivo, human
# Measurement Context: human, plasma, po, 200 mg, 200 mg single oral dose, NASH; read-out: Vz/F, Geometric Mean
Readout Name: Vd/F (L)
Entry rule: numbers only, all in L.

Q: Find the recorded Vd/F belonging to C[C@H](CCCC(C)(C)O)[C@H]1CC[C@H]2[C@@H]3CC=C4C[C@@H](OS(=O)(=O)[O-])CC[C@]4(C)[C@H]3CC[C@]12C.[Na+] [25HC3S sodium, 25-hydroxycholesterol-3-sulfate sodium] and report it.
A: 449

----------
# Experiment: single oral dose pharmacokinetic study in healthy and NASH subjects
# Assay type: in vivo, human
# Measurement Context: human, plasma, po, 50 mg, 50 mg single oral dose, Healthy; read-out: Cmax, Mean
Readout Name: Cmax (ng/mL)
Entry rule: numbers only, all in ng/mL.

1) C[C@H](CCCC(C)(C)O)[C@H]1CC[C@H]2[C@@H]3CC=C4C[C@@H](OS(=O)(=O)O)CC[C@]4(C)[C@H]3CC[C@]12C [25HC3S, 25-hydroxycholesterol-3-sulfate] = 94

# ---- query compound ----
Q: Find the recorded Cmax belonging to C[C@H](CCCC(C)(C)O)[C@H]1CC[C@H]2[C@@H]3CC=C4C[C@@H](OS(=O)(=O)[O-])CC[C@]4(C)[C@H]3CC[C@]12C.[Na+] [25HC3S sodium, 25-hydroxycholesterol-3-sulfate sodium] and report it.
A: 94

----------
# Experiment: Phase 1b 4-week oral dosing study in NASH patients: pharmacokinetics
# Assay type: in vivo, human
# Measurement Context: both sexes, human, plasma, oral; 150 mg QD (n = 21); read-out: Tmax, mean (standard deviation)
Readout Name: Tmax (h)
Entry rule: numbers only, all in h.

Q: Find the recorded Tmax belonging to C[C@H](CCCC(C)(C)O)[C@H]1CC[C@H]2[C@@H]3CC=C4C[C@@H](OS(=O)(=O)O)CC[C@]4(C)[C@H]3CC[C@]12C [25HC3S, 25-hydroxycholesterol-3-sulfate] and report it.
A: 2

----------
# Experiment: single oral dose pharmacokinetic study in healthy and NASH subjects
# Assay type: in vivo, human
# Measurement Context: human, plasma, po, 50 mg, 50 mg single oral dose, Healthy; read-out: Vz/F, Geometric Mean
Readout Name: Vd/F (L)
Entry rule: numbers only, all in L.

Q: Find the recorded Vd/F belonging to C[C@H](CCCC(C)(C)O)[C@H]1CC[C@H]2[C@@H]3CC=C4C[C@@H](OS(=O)(=O)[O-])CC[C@]4(C)[C@H]3CC[C@]12C.[Na+] [25HC3S sodium, 25-hydroxycholesterol-3-sulfate sodium] and report it.
A: 322

----------
# Experiment: Phase 1b 4-week oral dosing study in NASH patients: pharmacokinetics
# Format: in vivo, human
# Measurement Context: both sexes, human, plasma, oral; 150 mg QD (n = 21); read-out: Cmax, mean (standard deviation)
Readout Name: Cmax (ng/mL)
Entry rule: numbers only, all in ng/mL.

Q: Find the recorded Cmax belonging to C[C@H](CCCC(C)(C)O)[C@H]1CC[C@H]2[C@@H]3CC=C4C[C@@H](OS(=O)(=O)O)CC[C@]4(C)[C@H]3CC[C@]12C [25HC3S, 25-hydroxycholesterol-3-sulfate] and report it.
A: 274

----------
# Experiment: single oral dose pharmacokinetic study in healthy and NASH subjects
# Format: in vivo, human
# Measurement Context: human, plasma, po, 200 mg, 200 mg single oral dose, NASH; read-out: Tmax, Geometric Mean
Readout Name: Tmax (h)
Entry rule: numbers only, all in h.

Q: Find the recorded Tmax belonging to C[C@H](CCCC(C)(C)O)[C@H]1CC[C@H]2[C@@H]3CC=C4C[C@@H](OS(=O)(=O)[O-])CC[C@]4(C)[C@H]3CC[C@]12C.[Na+] [25HC3S sodium, 25-hydroxycholesterol-3-sulfate sodium] and report it.
A: 2.65

----------
# Experiment: Phase 1b 4-week oral dosing study in NASH patients: pharmacokinetics
# Assay type: in vivo, human
# Measurement Context: both sexes, human, plasma, oral; 300 mg BID (n = 21); read-out: T1/2, mean (standard deviation) (converted)
Readout Name: half-life (h)
Entry rule: numbers only, all in h.

Q: Find the recorded half-life belonging to C[C@H](CCCC(C)(C)O)[C@H]1CC[C@H]2[C@@H]3CC=C4C[C@@H](OS(=O)(=O)O)CC[C@]4(C)[C@H]3CC[C@]12C [25HC3S, 25-hydroxycholesterol-3-sulfate] and report it.
A: 2.4

----------
# Experiment: single oral dose pharmacokinetic study in healthy and NASH subjects
# Type: in vivo, human
# Measurement Context: human, plasma, po, 50 mg, 50 mg single oral dose, NASH; read-out: AUCinf, Mean
Readout Name: AUC(0-inf) (ng·h/mL)
Entry rule: numbers only, all in ng·h/mL.

Q: Find the recorded AUC(0-inf) belonging to C[C@H](CCCC(C)(C)O)[C@H]1CC[C@H]2[C@@H]3CC=C4C[C@@H](OS(=O)(=O)[O-])CC[C@]4(C)[C@H]3CC[C@]12C.[Na+] [25HC3S sodium, 25-hydroxycholesterol-3-sulfate sodium] and report it.
A: 636

----------
# Experiment: single oral dose pharmacokinetic study in healthy and NASH subjects
# Format: in vivo, human
# Measurement Context: human, plasma, po, 200 mg, 200 mg single oral dose, Healthy; read-out: Tmax, Mean
Readout Name: Tmax (h)
Entry rule: numbers only, all in h.

Q: Find the recorded Tmax belonging to C[C@H](CCCC(C)(C)O)[C@H]1CC[C@H]2[C@@H]3CC=C4C[C@@H](OS(=O)(=O)[O-])CC[C@]4(C)[C@H]3CC[C@]12C.[Na+] [25HC3S sodium, 25-hydroxycholesterol-3-sulfate sodium] and report it.
A: 2.67

The origin of these recorded values is patent US12642805B2.
